# measured-target: NK1-receptor (substance P-receptor) (Homo sapiens)
# Sequence (P25103 whole entry): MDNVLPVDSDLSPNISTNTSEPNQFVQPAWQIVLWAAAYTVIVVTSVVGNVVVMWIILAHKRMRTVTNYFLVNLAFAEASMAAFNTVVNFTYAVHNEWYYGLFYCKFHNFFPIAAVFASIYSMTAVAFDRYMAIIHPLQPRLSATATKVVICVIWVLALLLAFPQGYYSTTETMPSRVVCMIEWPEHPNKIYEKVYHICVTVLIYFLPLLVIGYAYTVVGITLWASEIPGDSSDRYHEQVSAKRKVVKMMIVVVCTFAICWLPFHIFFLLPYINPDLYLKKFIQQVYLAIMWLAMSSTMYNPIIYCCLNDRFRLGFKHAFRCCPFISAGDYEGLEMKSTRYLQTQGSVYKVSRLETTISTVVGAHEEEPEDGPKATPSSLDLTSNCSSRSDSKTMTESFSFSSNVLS
readout-type: log10 of Ki (log10 of the value in nM)

>>> result("CN(CCc1cc(C(F)(F)F)cc(C(F)(F)F)c1)C(=O)C(c1ccccc1)N1CCN(C2CCCCC2)CC1 (centres unmarked) [Example 5]")
0.11
>>> result("CN(CCc1cc(C(F)(F)F)cc(C(F)(F)F)c1)C(=O)C(c1ccccc1)N1CCC(C#N)(c2ccccc2)CC1.Cl (centres unmarked) [Example 75]")
2.26
>>> result("CN(CCc1cc(C(F)(F)F)cc(C(F)(F)F)c1)C(=O)C(c1ccccc1)N1CCN(CC2CC2)CC1 (centres unmarked) [Example 66]")
0.15
>>> result("O=C(C(c1ccccc1)N1CCC(N2CCCCC2)CC1)N(CCc1cc(C(F)(F)F)cc(C(F)(F)F)c1)Cc1ccccc1 (centres unmarked) [Example 76]")
0.85
>>> result("CN(CCc1cc(C(F)(F)F)cc(C(F)(F)F)c1)C(=O)C(c1ccc(Cl)c(Cl)c1)N1CCN(C2CCCCC2)CC1 (centres unmarked) [Example 58]")
0.81

All values here come from patent US6413959B1.
